- Test system: HOP-92 NSCLC
- measurement.notes: NCI tumour cell line growth inhibition, 48 h
parameter.measured: TGI

Find the recorded TGI belonging to CCOC(=O)CCc1c(C)c2c(OC)cc(OC)cc2oc1=O and report it. > 100 µM

What does the record list as TGI for CS(=O)(=O)N1CCC(Nc2ncc(C(=O)c3c(F)cccc3F)c(N)n2)CC1 ? > 20.8 µM

Given the entry COc1cc2c(Nc3ccc(-c4ccc(N)cc4)cc3)ncnc2c(OC)c1OC , report its measured TGI. > 100 µM

Dear colleague, I am looking for the recorded TGI of the following compound: CCc1ccc(Oc2c(-c3ccc(OCCc4cccc(C(F)(F)F)c4)cc3O)n[nH]c2C(F)(F)F)cc1 5.01 µM

Which TGI is listed for CCCCCc1cc(/C=C2/N=C(c3ccc[nH]3)C=C2OC)[nH]c1C ? 0.0213 µM

Need TGI, item c1cc[n+](Cc2c3ccccc3cc3c2ccc2ccccc23)cc1 6.97 µM

Form field: reported TGI of CCCCCCC(=O)OC[n+]1ccc(-c2c(COC(=O)NC(C)C)c(COC(=O)NC(C)C)c3n2CCC3)cc1 > 100 µM

TGI lookup needed for Nc1nc(N)c2cc(S(=O)(=O)c3ccc4ccccc4c3)ccc2n1 , thanks. 34.8 µM

Please look up its TGI: CCCCCOC(=O)Nc1nc(=O)n(C2OC(C)C(O)C2O)cc1F (stereo unspecified) > 10000 µM

Can you look up the measured TGI of O=C(Cc1cc(O)ccc1O)NO for me? 59.6 µM

Could you share which TGI value was measured for COC(=O)[C@]12CC[C@H]3CN(S(=O)(=O)c4ccc(C)cc4)[C@H]([C@H]31)[C@H](c1ccco1)N2S(=O)(=O)c1ccc(C)cc1 ? 62.8 µM

Any idea what its TGI is? The compound is CC1=CC2(C)C=C[C@@H]1C(=O)[C@@]1(C)CC[C@@](O)(C(C)C)[C@H]1CC2 28.2 µM

Fill blank: measured TGI of the compound O=c1[nH]c(=O)n([C@H]2C[C@@H](CO)[C@@H](O)C2)cc1I is ____. > 100 µM

Which TGI reading was recorded for the compound Nc1ncnc2c1ccn2CC#CCO ? > 100 µM

What measured TGI goes with COc1ccc2c(c1)OCC1c3cc(OC)c4ccccc4c3OC21 (stereo unspecified) ? > 100 µM

// TGI lookup, key: c1ccc2c(c1)nc1ccccn12 > 100 µM

Entry CCOc1cc(Cl)c(C(C)NC(=O)c2cccc(OC)c2)cc1OCC (stereo unspecified) has what TGI? > 85.6 µM

Suppose we examine the compound O=C(O)C1=C(CO)Oc2cc3c(cc2C1c1ccc2c(c1)OCO2)OCO3 (stereo unspecified) ; what TGI value has been reported? > 100 µM

Which TGI is listed for Cc1cc(-c2nc3cc(F)ccc3s2)ccc1N ? > 78 µM

So what does the record say about TGI for O=C(/C=C(/C=C/c1cccc2[nH]ccc12)OB(F)F)/C=C/c1cccc2[nH]ccc12 ? 5.15 µM

TGI lookup needed for CNC(=O)O/N=C1\N(C)CN(c2ccccc2)C12CCN(CCCC(=O)c1ccc(F)cc1)CC2 , thanks. > 100 µM

----------
I'd appreciate it if you could supply GI50 values for the items below.

So what GI50 did CS(=O)(=O)Nc1cc(-c2ccc3ncc(C#N)c(Nc4ccc(F)c(Cl)c4)c3c2)cnc1Cl get with MDA-MB-435? 220 nM

Give MDA-MB-435 GI50 for COc1cccc2nc(Nc3cccc(NC(=O)c4ccc(N5CCN(C)CC5)c(C(F)(F)F)c4)c3)ccc12 878 nM

So what GI50 did COc1ccc(-c2cc(=O)c3c(OC)c4ccoc4c(/C=C/C=O)c3o2)cc1 get with MDA-MB-435? 2810 nM

Lookup: GI50 / MDA-MB-435 / O=C1/C(=C/c2ccc(Cl)cc2)CN(Cc2cn(CCCNc3ccnc4cc(Cl)ccc34)nn2)C/C1=C\c1ccc(Cl)cc1 1300 nM

Report GI50 for Cc1[nH]c(C(=O)Nc2cccc(OC3CCNCC3)c2)c(Cl)c1Cl tested on MDA-MB-435. 1810 nM

Query GI50 on MDA-MB-435 for COc1cc(/C=C2\CCC/C(=C\c3cc(CN4CCCC4)c(O)c(OC)c3)C2=O)cc(CN2CCCC2)c1O 2750 nM

Record lookup: for MDA-MB-435, what GI50 belongs to COc1ccccc1CNCCCN1C(=O)c2ccc3c4c(ccc(c24)C1=O)C(=O)N(CCCNCCCCNCCCN)C3=O ? 213 nM

Please tell me: GI50 of Cc1nc2ccc(-n3ncc(C(=O)c4cc5ccccc5[nH]4)c3N)cc2[nH]1 , system MDA-MB-435? 14500 nM

API: value(readout= GI50, system= MDA-MB-435, query= CC[C@]12C=CCN3CC[C@@]4(c5ccc(OC)cc5N(C)[C@H]4[C@@](O)(C(=O)OC)[C@@H]1OC(=O)CCC(=O)O[C@H]1CC[C@H]4[C@@H]5CCC6=CC(=O)CC[C@@H]6[C@H]5CC[C@]14C)[C@@H]32 ) 1930 nM

Test system MDA-MB-435; read-out GI50; what value for CC1(C)CC[C@]23CC[C@]4(C)[C@H](CC[C@@H]5[C@@]6(C)CCCNC(C)(C)[C@@H]6CC[C@]54C)[C@H]2[C@H]1OC3 ? 1650 nM

Recall the recorded GI50 for CCc1ccc(Oc2c(-c3ccc(OCCc4cccc(C(F)(F)F)c4)cc3O)n[nH]c2C(F)(F)F)cc1 with MDA-MB-435 and state it. 3710 nM

----------
Consider the following compounds; for each one, report its TGI.
- Tested on: KM12 colon
- measurement.notes: NCI tumour cell line growth inhibition, 48 h

Entry O=C1NC(c2ccc3ccccc3c2)Nc2ccccc21 (stereo unspecified) : reported TGI = ? > 100 µM

Return reported TGI; argument: CCn1c2ccccc2c2ccc(C3C4C(=O)N(c5cccc6ccccc56)C(=O)C4ON3C(C(N)=O)c3ccccc3)cc21 (stereo unspecified) > 25 µM

Name the reported TGI value associated with the compound NC1=NC(c2ccc(Cl)cc2)=CC(c2cccc(Cl)c2)S1 (stereo unspecified) > 100 µM

Any idea what its TGI is? The compound is COc1cc(-c2nc(N)c(C#N)c3c2CCS(=O)(=O)c2ccc(C)cc2-3)cc(OC)c1OC > 100 µM

// query TGI value for entry COC(=O)C(=O)C(C(=O)OC)C(=O)C(=O)Nc1cc(Cl)c(C)cc1S(=O)(=O)O (stereo unspecified) > 100 µM

TGI for CCCCCN1C(=O)C(Cc2ccccc2)N=C(c2ccc(O)cc2)c2cc(Cl)ccc21 (stereo unspecified) ? 30.3 µM

// lookup TGI for Cc1c(-c2coc(-c3ccc([N+](=O)[O-])cc3)n2)c(=O)n(-c2ccccc2)n1C > 100 µM

If you can, please state the reported TGI value of COc1ccc(-c2nc3sccn3c2-c2ccnc(NCCNS(=O)(=O)c3ccc(C(F)(F)F)cc3)n2)cc1 . 36.2 µM

Give the measured TGI of Cc1cn(CC(=S)NCCc2c[nH]c3ccccc23)c(=O)[nH]c1=O . > 100 µM

Please give the measured TGI for this compound: CCCCC/C=C\C=C\CCCCCCCCC(=O)OC > 100 µM

What TGI value was documented for this compound, O=C(Cc1cc(O)ccc1O)NO ? > 100 µM

So what's the measured TGI for this one? O=S(=O)(O)c1c(Cl)c(Cl)c(O)c2ncccc12 33.2 µM

Quick check: TGI of C[C@@]12CC[C@@H](O)C[C@@H]1CC[C@H]1[C@H]2CC[C@@]2(C)[C@H](c3ccc(=O)oc3)CC[C@@]12O ? 0.153 µM

Reported TGI, compound Nc1ccc(Oc2ccc(C34CC5C6CC7(c8ccc(Oc9ccc(N)cc9)cc8)CC5C(C3)C(C7)C6C4)cc2)cc1 : ____ > 100 µM

What does the record list as TGI for COc1cc2ccnc(C#N)c2cc1OCc1ccccc1 ? > 100 µM

Which TGI value belongs to c1ccc2c(c1)nc1ccccn12 ? > 100 µM

Fill in the blank: the reported TGI of CCN(N=O)C1C2(CCCC2)NC(=O)C12CCCC2 (stereo unspecified) is ____. > 100 µM

What value of TGI has been recorded for this entry: CN1CCCS/C1=C1/SC(=S)N(c2ccccc2)C1=O > 100 µM

Give its TGI value. Item: Nc1c(F)c(F)c2c(c1F)N(CCCCCl)c1ccccc1S2 > 100 µM

Dear colleague, I am looking for the recorded TGI of the following compound: CC(C)(C)OC(=O)N(O)CCCn1cnc2c(NC3CC3)ncnc21 > 100 µM

Consider the compound shown here: CCCCCCCCCCCCCCCC(=O)NS(=O)(=O)OC[C@H]1O[C@@H](n2cnc3c(N)ncnc32)[C@H](O)[C@@H]1O What is its recorded TGI? 3.01 µM
